Test: body weight and dietary intake of leptin receptor-deficient (ob/ob) mice
Format: in vivo, mouse
Settings: after four weeks, relative to ob/ob mice without administration (control), method of Example 23
reported.endpoint: Weight reduction In ob/ob mice (4 wk) (%)

• CC1OC2=C(C(=O)C(=O)c3ccccc32)C1(C)C (stereo not drawn) = −46.2
• CC(C)C1=CC2OC3=C(CC2(C)CC1)C(=O)C(=O)c1ccccc13 (stereo not drawn) = −6.7
• CC1(C)CC2=C(O1)c1ccccc1C(=O)C2=O = −27.8
